Listed here are compounds together with their documented viability, T/C.
Tested on: 217524-143-R1-J4-PDC spheroids with HUVEC/MSC, viability
Assay: Anticancer human tumor 217524-143-R1-J4-PDC patient-derived pancreatic carcinoma cell line growth inhibition [CLK]
Settings: second compound 0.316 µM; first compound 0.316 µM; active compounds read low
measured quantity: viability, T/C

- COc1c(OCCCN2CCOCC2)ccc2c3n(c(=NC(=O)c4cnc(N)nc4)nc12)CCN3 + CN1CCN(c2cc(C(=O)Nc3cc4cc(-c5cnn(C)c5)ccc4cn3)ccn2)CC1: 2.75%
- C=C(F)C(=O)N1CCN(c2nc(OCC3CCCN3C)nc3c2CCN(c2cccc4cccc(Cl)c24)C3)CC1CC#N (stereo not given) + CN1CCN(c2cc(C(=O)Nc3cc4cc(-c5cnn(C)c5)ccc4cn3)ccn2)CC1: 31%
- COC1C=CCC(C)C(C)S(=O)(=O)NC(=O)c2ccc3c(c2)N(CC2CCC21)CC1(CCCc2cc(Cl)ccc21)CO3 (stereo not given) + CN1CCN(c2cc(C(=O)Nc3cc4cc(-c5cnn(C)c5)ccc4cn3)ccn2)CC1: 23.3%
- Nc1ccccc1NC(=O)c1ccc(CNC(=O)OCc2cccnc2)cc1 + CNC(=O)c1ccc(Nc2nc(OC3CCCC3)c3c(-c4ccc5nc(C)oc5c4)c[nH]c3n2)c(OC)c1: 47.8%
- CC1(C)CCC(CN2CCN(c3ccc(C(=O)NS(=O)(=O)c4ccc(NCC5CCOCC5)c([N+](=O)[O-])c4)c(Oc4cnc5[nH]ccc5c4)c3)CC2)=C(c2ccc(Cl)cc2)C1 + CN1CCN(c2cc(C(=O)Nc3cc4cc(-c5cnn(C)c5)ccc4cn3)ccn2)CC1: 21.5%

---

Test system: 217524-143-R1-J4-PDC spheroids with HUVEC/MSC, viability
Assay: Anticancer human tumor 217524-143-R1-J4-PDC cell line growth inhibition [CLK]; active = viability on the fitted dose curve at most 10% of control; inactive = the rest;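 further: spheroids exposed to agents for seven days before reading; 100% = DMSO vehicle control viability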
Conditions: second compound 1 µM; first compound 0.000949 µM
Outcome codes: Y (active), N (inactive)

- CC(C)CC(NC(=O)C(Cc1ccccc1)NC(=O)c1cnccn1)B(O)O (centres undefined) + CN1CCN(c2cc(C(=O)Nc3cc4cc(-c5cnn(C)c5)ccc4cn3)ccn2)CC1: Y
- C=CC(=O)Nc1cc(Nc2nccc(-c3cn(C)c4ccccc34)n2)c(OC)cc1N(C)CCN(C)C + CNC(=O)c1ccc(Nc2nc(OC3CCCC3)c3c(-c4ccc5nc(C)oc5c4)c[nH]c3n2)c(OC)c1: N
- CC(C)CC(NC(=O)C(Cc1ccccc1)NC(=O)c1cnccn1)B(O)O (centres undefined) + CNC(=O)c1ccc(Nc2nc(OC3CCCC3)c3c(-c4ccc5nc(C)oc5c4)c[nH]c3n2)c(OC)c1: N
- C=CC(=O)Nc1cc(Nc2nccc(-c3cn(C)c4ccccc34)n2)c(OC)cc1N(C)CCN(C)C + CN1CCN(c2cc(C(=O)Nc3cc4cc(-c5cnn(C)c5)ccc4cn3)ccn2)CC1: Y

---

Listed here are compounds together with their documented viability, T/C.
Tested on: 217524-143-R1-J4-PDC spheroids with HUVEC/MSC, viability
Assay: Anticancer human tumor 217524-143-R1-J4-PDC cell line growth inhibition [CLK];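 further: spheroids exposed to agents for seven days before reading; 100% = DMSO vehicle control viability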
Settings: second compound 0.0316 µM; first compound 0.01 µM; active compounds read low
measured quantity: viability, T/C (%)

- CCc1c2c(nc3ccc(O)cc13)-c1cc3c(c(=O)n1C2)COC(=O)[C@]3(O)CC + CN1CCN(c2cc(C(=O)Nc3cc4cc(-c5cnn(C)c5)ccc4cn3)ccn2)CC1: 34.1
- Cn1ncnc1[C@H]1c2n[nH]c(=O)c3cc(F)cc(c23)N[C@@H]1c1ccc(F)cc1 + CNC(=O)c1ccc(Nc2nc(OC3CCCC3)c3c(-c4ccc5nc(C)oc5c4)c[nH]c3n2)c(OC)c1: 85
- CCN1CCN(Cc2ccc(Nc3ncc(F)c(-c4cc(F)c5nc(C)n(C(C)C)c5c4)n3)nc2)CC1 + CNC(=O)c1ccc(Nc2nc(OC3CCCC3)c3c(-c4ccc5nc(C)oc5c4)c[nH]c3n2)c(OC)c1: 71.2
- COc1c(OCCCN2CCOCC2)ccc2c3n(c(=NC(=O)c4cnc(N)nc4)nc12)CCN3 + CN1CCN(c2cc(C(=O)Nc3cc4cc(-c5cnn(C)c5)ccc4cn3)ccn2)CC1: 35.1
- CCc1c2c(nc3ccc(O)cc13)-c1cc3c(c(=O)n1C2)COC(=O)[C@]3(O)CC + CNC(=O)c1ccc(Nc2nc(OC3CCCC3)c3c(-c4ccc5nc(C)oc5c4)c[nH]c3n2)c(OC)c1: 39.4
